Hello, the source for this data is PubChem BioAssay (NCI), in case you need it.

# Tested on: NCI/ADR-RES ovarian
# procedure-text: NCI tumour cell line growth inhibition, 48 h; in the data active means GI50 below about 0.43 µM; inactive means the rest
Answer with one of the outcomes active, inactive

Request: Assay outcome for "COc1ccc(Nc2ncnc3ccc(-c4cncc(NS(C)(=O)=O)c4)cc23)cc1Cl" : what was it?
Response: inactive

Request: Assay outcome for "Cc1nn(C)c2ncnc(N/N=C/c3cccc(O)c3O)c12" : what was it?
Response: active

Request: Assay outcome for Fc1ccc2c(c1)C1=C(CCC2)C(c2ccc(Cl)cc2)NC(=S)N1 (centres undefined) : what was it?
Response: inactive

Request: Assay outcome for "CCC[CH2][Sn]([CH2]CCC)([CH2]CCC)/[C](=C/[Si](C)(C)c1ccccc1)c1ccc2c(c1)OCO2" : what was it?
Response: inactive

Request: Assay outcome for O=C1CS/C(=N/S(=O)(=O)c2ccc(N3N=C4c5ccccc5CC4C3c3cccs3)cc2)N1C(=O)c1ccccc1 (centres undefined) : what was it?
Response: inactive

Request: Assay outcome for CC12OC(C(=O)C13CC3)C1C(=O)c3c(O)ccc(O)c3C(=O)C12 (centres undefined) : what was it?
Response: inactive

Request: Assay outcome for "Cc1cc(=O)[nH]c(N/N=C/c2ccccc2O)n1" : what was it?
Response: inactive

Request: Assay outcome for CC(C)(C)c1ccc(C2CC(=O)C3=C(C2)Nc2ccccc2N(C(=O)c2ccccc2Cl)C3c2ccc(F)cc2)cc1 (centres undefined) : what was it?
Response: inactive

Request: Assay outcome for "FC(F)c1ncc(-c2ccc(C(F)(F)F)cc2)c(NC2CCCCCC2)n1" : what was it?
Response: inactive

---

# System: U251 CNS
Answer with one of the outcomes true for active, false for inactive

Request: Assay outcome for "COC1=C(OC)C(=O)C(C/C=C(\C)CC/C=C(\C)CC/C=C(\C)CC/C=C(\C)CC/C=C(\C)CC/C=C(\C)CC/C=C(\C)CC/C=C(\C)CC/C=C(\C)CCC=C(C)C)=C(C)C1=O" : what was it?
Response: false

Request: Assay outcome for Nc1nc(Cl)nc2c1ncn2C1OC(CO)C(O)C1F (stereo unspecified) : what was it?
Response: true

Request: Assay outcome for "COc1cc(Cc2c(C)cc(OC)c3[nH]c4ccccc4c23)cc2c1[nH]c1ccccc12" : what was it?
Response: false

Request: Assay outcome for "O=C1NC(=O)C(c2cccc(Cl)c2)=C1Nc1ccc(Cl)c(C(=O)O)c1" : what was it?
Response: false

Request: Assay outcome for "Cc1c(Nc2nccc3cc(CN4CC[C@@H](O)C4)cnc23)cccc1-c1cccc(-c2nc3cc(CN4CC[C@@H](C(=O)O)C4)cc(C#N)c3o2)c1C" : what was it?
Response: false

Request: Assay outcome for "O=c1cc(-c2ccccc2)[nH]c2c1CCCC2" : what was it?
Response: false

---

# Test system: MCF7 breast
# procedure-text: NCI tumour cell line growth inhibition, 48 h; in the data active means GI50 below about 0.43 µM; inactive means the rest
Answer with one of the outcomes active, inactive

Request: Assay outcome for "O=C(Nc1ccc(-n2cc(-c3ccncc3)c(-c3ccc(O)c(Cl)c3)n2)cc1)c1ccc(Cl)c(C(F)(F)F)c1" : what was it?
Response: inactive

Request: Assay outcome for "COC1=C(OC)C(=O)C(C/C=C(\C)CC/C=C(\C)CC/C=C(\C)CC/C=C(\C)CC/C=C(\C)CC/C=C(\C)CC/C=C(\C)CC/C=C(\C)CC/C=C(\C)CCC=C(C)C)=C(C)C1=O" : what was it?
Response: inactive

Request: Assay outcome for Nc1c(C(=O)c2cccc(C(O)CO)c2)cnn1-c1ccc(F)cc1 (stereo not given) : what was it?
Response: inactive

Request: Assay outcome for "Cc1nn(C)c2ncnc(N/N=C/c3cccc(O)c3O)c12" : what was it?
Response: inactive

Request: Assay outcome for C=CC1C(CC2OC(CO)C(O)C(O)C2O)OC=C2C(=O)OCCC21O (stereo not given) : what was it?
Response: inactive

Request: Assay outcome for "COc1cc2nc(N3CCC[C@H](NC4=CC(=O)c5ccccc5C4=O)C3)nc(N)c2cc1OC" : what was it?
Response: inactive

Request: Assay outcome for "CN1CCN(Cc2ccc(NC(=O)c3[nH]ncc3Nc3ncnc4[nH]ccc34)cc2)CC1" : what was it?
Response: active

Request: Assay outcome for "CCN1CCN(c2cc(C(=O)Nc3cccc(Nc4ccc5c(OC)cccc5n4)c3)cc(C(F)(F)F)c2)CC1" : what was it?
Response: inactive

Request: Assay outcome for "FC(F)c1ncc(-c2ccc(C(F)(F)F)cc2)c(NC2CCCCCC2)n1" : what was it?
Response: inactive

Request: Assay outcome for "COc1ccc2nc(C)cc(Sc3nc4ccccc4s3)c2c1" : what was it?
Response: inactive

Request: Assay outcome for "CCC[CH2][Sn]([CH2]CCC)([CH2]CCC)/[C](=C/[Si](C)(C)c1ccccc1)c1ccc2c(c1)OCO2" : what was it?
Response: inactive

Request: Assay outcome for C=C(C(=O)OC)[C@@H]1CC2OC1C(=O)C(C)CCC/C(C)=C/CC[C@@]2(C)O (stereo not given in full) : what was it?
Response: inactive

Request: Assay outcome for "Cc1cc(=O)[nH]c(N/N=C/c2ccccc2O)n1" : what was it?
Response: inactive

Request: Assay outcome for "O=C(O)COc1ccc(OCC(=O)O)cc1" : what was it?
Response: active

Request: Assay outcome for "Cc1ccc(S(=O)(=O)n2cc([C@@]3(O)C[C@H](CSC#N)OC3=O)c3ccccc32)cc1" : what was it?
Response: inactive

---

# Test system: NCI/ADR-RES ovarian
# procedure-text: NCI tumour cell line growth inhibition, 48 h
value-type: GI50

The compound NC1=NC(SCc2ccccc2CCl)c2ncn(Cc3ccccc3CCl)c2N1 (stereo not given) , tested on NCI/ADR-RES ovarian, showed GI50 of 1.81 µM

The compound "CC(C)[P+](c1ccccc1)(c1ccccc1)c1ccccc1" , tested on NCI/ADR-RES ovarian, showed GI50 of > 100 µM

The compound "Cc1c(Nc2nccc3cc(CN4CC[C@@H](O)C4)cnc23)cccc1-c1cccc(-c2nc3cc(CN4CC[C@@H](C(=O)O)C4)cc(C#N)c3o2)c1C" , tested on NCI/ADR-RES ovarian, showed GI50 of 14.8 µM

The compound "CC(C)C[C@H](NC(=O)Cn1cccc(CNC(=O)c2ccccc2)c1=O)B(O)O" , tested on NCI/ADR-RES ovarian, showed GI50 of > 69.1 µM

The compound "COc1cc(/C=C/C(=O)CC(=O)/C=C/c2cc(OC)c(O)c(OC)c2)cc(OC)c1O" , tested on NCI/ADR-RES ovarian, showed GI50 of > 100 µM

---

# System: RXF 393 renal
# procedure-text: NCI tumour cell line growth inhibition, 48 h
So I've got a bunch of compounds here, and I need their log10(TGI) values.
// do not treat as linear: log10 of TGI, unit µM

So for "O=C1C=CC(=O)c2c1ccc1c3ccccc3n(Cc3ccccc3)c21" , the logged log10(TGI) turned out to be 1.52

So for "O=C1Nc2cccc(Cl)c2/C1=C\c1c(-c2ccccc2)nc2n1CCS2" , the logged log10(TGI) turned out to be 1.63

So for CC12CCC(=O)C(O1)C1C(=O)c3ccc4c(ccc5ccccc54)c3C(=O)C12 (stereo unspecified) , the logged log10(TGI) turned out to be 0.31

So for "COc1cc(F)c(F)cc1C(=O)c1cnc(NC2CCN(S(C)(=O)=O)CC2)nc1N" , the logged log10(TGI) turned out to be 0.86

So for "CN1CCN(Cc2ccc(NC(=O)c3[nH]ncc3Nc3ncnc4[nH]ccc34)cc2)CC1" , the logged log10(TGI) turned out to be -0.33

So for "O=C1C(N2CCN(CCOCCO)CC2)=C(Cl)C(=O)c2ncccc21" , the logged log10(TGI) turned out to be 1.55

---

# Tested on: NCI-H226 lung
# procedure-text: NCI tumour cell line growth inhibition, 48 h
value-type: GI50

So for "COC1=C(OC)C(=O)C(C/C=C(\C)CC/C=C(\C)CC/C=C(\C)CC/C=C(\C)CC/C=C(\C)CC/C=C(\C)CC/C=C(\C)CC/C=C(\C)CC/C=C(\C)CCC=C(C)C)=C(C)C1=O" , the logged GI50 turned out to be > 100000 nM

So for "CC(=O)c1c[nH]c2ccc(-c3ccnc(Nc4ccc(NC(=O)C5CCCC5)c(CN5CCOCC5)c4)n3)cc12" , the logged GI50 turned out to be 29.8 nM

So for "CC(C)=Cc1cc(C)c2ccc(C)c3c2c1C(C)=C(O)C3=O" , the logged GI50 turned out to be 30800 nM

So for "CN(C)CCN1C(=O)c2cccc3c(/C=C/CN4C(=O)c5cccc6cccc(c56)C4=O)ccc(c23)C1=O" , the logged GI50 turned out to be 1920 nM

So for "CC(C)C[C@H](NC(=O)Cn1cccc(CNC(=O)c2ccccc2)c1=O)B(O)O" , the logged GI50 turned out to be 202 nM
